- target_under_test: Beta-secretase 1 (Homo sapiens)
- Sequence (P56817 whole entry): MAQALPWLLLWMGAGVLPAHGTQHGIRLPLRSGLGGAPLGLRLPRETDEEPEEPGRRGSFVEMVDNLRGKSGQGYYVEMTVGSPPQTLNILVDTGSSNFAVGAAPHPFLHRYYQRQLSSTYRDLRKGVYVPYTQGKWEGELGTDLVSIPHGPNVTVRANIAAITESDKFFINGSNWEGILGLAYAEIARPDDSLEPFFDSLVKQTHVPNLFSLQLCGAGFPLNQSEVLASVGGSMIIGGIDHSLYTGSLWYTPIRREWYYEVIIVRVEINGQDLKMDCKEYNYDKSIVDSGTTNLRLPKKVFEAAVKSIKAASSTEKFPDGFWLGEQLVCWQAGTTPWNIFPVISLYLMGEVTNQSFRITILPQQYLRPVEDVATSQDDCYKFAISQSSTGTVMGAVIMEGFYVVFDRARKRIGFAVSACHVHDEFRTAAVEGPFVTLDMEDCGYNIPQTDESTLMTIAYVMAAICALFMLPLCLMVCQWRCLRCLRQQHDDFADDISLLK
- test_details: Inhibition of human recombinant BACE1 at 0.2 uM
For each entry below, report its inhibition value.
One number for each entry, in %.

molecule: CC(C)C[C@H](NC(=O)[C@@H](NC(=O)[C@@H](N)CNC(=O)c1nn[nH]n1)C(C)C)C(=O)N[C@@H](Cc1ccccc1)[C@@H](O)C(=O)Nc1cc([N+](=O)[O-])cc([N+](=O)[O-])c1
readout_label: inhibition
readout_number: 75
--
molecule: CC(C)C[C@H](NC(=O)[C@@H](NC(=O)[C@@H](N)CNC(=O)c1nn[nH]n1)C(C)C)C(=O)N[C@@H](Cc1ccccc1)[C@@H](O)C(=O)Nc1cc(Cl)cc(Cl)c1
readout_label: inhibition
readout_number: 84
--
molecule: CC(C)C[C@H](NC(=O)[C@@H](NC(=O)[C@@H](N)CNC(=O)c1nn[nH]n1)C(C)C)C(=O)N[C@@H](Cc1ccccc1)[C@@H](O)C(=O)Nc1cc(C(F)(F)F)cc(C(F)(F)F)c1
readout_label: inhibition
readout_number: 68
--
molecule: CC(C)C[C@H](NC(=O)[C@@H](NC(=O)[C@@H](N)CNC(=O)c1nn[nH]n1)C(C)C)C(=O)N[C@@H](Cc1ccccc1)[C@@H](O)C(=O)Nc1cc(Br)cc(C(F)(F)F)c1
readout_label: inhibition
readout_number: 57
--
molecule: CC(C)C[C@H](NC(=O)[C@@H](NC(=O)[C@@H](N)CNC(=O)c1nn[nH]n1)C(C)C)C(=O)N[C@@H](Cc1ccccc1)[C@@H](O)C(=O)Nc1cccc([N+](=O)[O-])c1
readout_label: inhibition
readout_number: 70
--
molecule: CC(C)C[C@H](NC(=O)[C@@H](NC(=O)[C@@H](N)CNC(=O)c1nn[nH]n1)C(C)C)C(=O)N[C@@H](Cc1ccccc1)[C@@H](O)C(=O)NS(=O)(=O)C(F)(F)F
readout_label: inhibition
readout_number: 81

Please turn your attention to the following entry.
Please give the measured inhibition for this compound: CC(C)C[C@H](NC(=O)[C@@H](NC(=O)[C@@H](N)CNC(=O)c1nn[nH]n1)C(C)C)C(=O)N[C@@H](Cc1ccccc1)[C@@H](O)C(=O)Nc1cccc(OC(F)(F)F)c1
72
